- Assayed system: HIV protease (Human immunodeficiency virus type 1 group M subtype B, UniProt P04585)
- Construct: A third viral enzyme known as protease then cleaves the polyproteins
- Protocol details: Enzymatic Assay for Determining the Inhibition Constant (Ki) of Synthetic Compounds Targeting the HIV Protease (fluorometric FRET assay)
- Assay type: biochemical
pKi: −log10 of the molar value.
Threshold check on pKi: at or above 8 gives MET, strictly below gives NOT MET.

[[record]]
compound_structure_string = "Cc1ccc(S(=O)(=O)N(CC(C)C)[C@@H](CCCCNC(=O)[C@@H]2Cc3ccccc3CN2S(=O)(=O)c2ccc(C)cc2)C(=O)O)cc1"
assayed_system = "HIV protease (Human immunodeficiency virus type 1 group M subtype B, UniProt P04585)"
class_name = "NOT MET"

[[record]]
compound_structure_string = "Cc1ccc(S(=O)(=O)N(CC(C)C)[C@H](CO)CCCCNC(=O)[C@H](Cc2ccccc2)NC(=O)N2CCOCC2)cc1"
assayed_system = "HIV protease (Human immunodeficiency virus type 1 group M subtype B, UniProt P04585)"
class_name = "MET"

[[record]]
compound_structure_string = "COc1ccc(S(=O)(=O)N(CC2CCCC2)[C@H](CO)CCCCNC(=O)[C@H](Cc2c[nH]c3ccccc23)NC(=O)OC(C)(C)C)cc1"
assayed_system = "HIV protease (Human immunodeficiency virus type 1 group M subtype B, UniProt P04585)"
class_name = "NOT MET"

[[record]]
compound_structure_string = "Cc1ccc(S(=O)(=O)N(CC(C)C)[C@@H](CCCCNC(=O)[C@H](CC(N)=O)NS(=O)(=O)c2ccccc2)C(=O)O)cc1"
assayed_system = "HIV protease (Human immunodeficiency virus type 1 group M subtype B, UniProt P04585)"
class_name = "MET"


----------
- Assayed system: HIV protease (Human immunodeficiency virus type 1 group M subtype B, UniProt P04585)
- Construct: A third viral enzyme known as protease then cleaves the polyproteins
- Protocol details: Enzymatic Assay for Determining the Inhibition Constant (Ki) of Synthetic Compounds Targeting the HIV Protease (fluorometric FRET assay)
- Format: biochemical
Measured attribute: Ki

[[record]]
compound_structure_string = "COC(=O)[C@H](CCCCNC(=O)[C@H](Cc1ccccc1)NS(=O)(=O)c1ccc(C)cc1)N(CC(C)C)S(=O)(=O)c1ccc(C)cc1"
recorded_value = "> 300 nM"

[[record]]
compound_structure_string = "COc1ccc(CC(=O)N[C@@H](Cc2ccccc2)C(=O)NCCCC[C@@H](C(=O)O)N(CC(C)C)S(=O)(=O)c2ccc(C)cc2)cc1"
recorded_value = "0.257 nM"

[[record]]
compound_structure_string = "Cc1ccc(S(=O)(=O)N(CC(C)C)[C@@H](CCCCNC(=O)[C@H](Cc2c[nH]c3ccccc23)NC(=O)CCc2ccccc2)C(=O)O)cc1"
recorded_value = "0.606 nM"


----------
- Assayed system: HIV protease (Human immunodeficiency virus type 1 group M subtype B, UniProt P04585)
- Construct: A third viral enzyme known as protease then cleaves the polyproteins
- Protocol details: Enzymatic Assay for Determining the Inhibition Constant (Ki) of Synthetic Compounds Targeting the HIV Protease (fluorometric FRET assay)
- Type: biochemical
- Setup conditions: Anti-protease activity; read-out: Ki
pKi: −log10 of the molar value.
Measured attribute: pKi

[[record]]
compound = "Cc1ccc(S(=O)(=O)N(CC(C)C)[C@@H](CCCCNC(=O)[C@@H]2C[C@@H](O)CN2S(=O)(=O)c2ccccc2)C(=O)O)cc1 (relative stereo) [Example 17]"
recorded_value = 7.26


----------
- Assayed system: HIV protease (Human immunodeficiency virus type 1 group M subtype B)
- Construct: A third viral enzyme known as protease then cleaves the polyproteins
- Protocol details: Enzymatic Assay for Determining the Inhibition Constant (Ki) of Synthetic Compounds Targeting the HIV Protease (fluorometric FRET assay)
- Type: biochemical
pKi: −log10 of the molar value.
Threshold check on pKi: at or above 8 gives satisfied, strictly below gives not satisfied.

[[record]]
molecule = "CC(C)CN([C@H](CO)CCCCNC(=O)[C@H](Cc1c[nH]c2ccccc12)NS(=O)(=O)c1ccc([N+](=O)[O-])cc1)S(=O)(=O)c1ccc(N)cc1 [Example 179]"
class_name = "not satisfied"

[[record]]
molecule = "COc1ccc(CC(=O)N[C@@H](Cc2ccccc2)C(=O)NCCCC[C@@H](C(=O)O)N(CC(C)C)S(=O)(=O)c2ccc(N)cc2)cc1 [Example 163]"
class_name = "satisfied"

[[record]]
molecule = "CC(C)COC(=O)N[C@@H](Cc1c[nH]c2ccccc12)C(=O)NCCCC[C@@H](CO)N(CC(C)C)S(=O)(=O)c1ccc(N)cc1 [Example 193]"
class_name = "satisfied"

[[record]]
molecule = "CC(C)CN([C@H](CO)CCCCNC(=O)[C@H](Cc1c[nH]c2ccccc12)NS(=O)(=O)c1ccccc1)S(=O)(=O)c1ccc(N)cc1 [Example 167]"
class_name = "satisfied"

[[record]]
molecule = "Cc1ccc(S(=O)(=O)N(CC(C)C)[C@@H](CCCCNC(=O)[C@H](CC(N)=O)NC(=O)OCc2ccccc2)C(=O)O)cc1 [Example 48]"
class_name = "not satisfied"

[[record]]
molecule = "Cc1ccc(S(=O)(=O)N(CC(C)C)[C@@H](CCCCNC(=O)[C@@H](NC(=O)OC(C)(C)C)[C@@H](C)OCc2ccccc2)C(=O)O)cc1 [Example 84]"
class_name = "not satisfied"

[[record]]
molecule = "COc1ccc(S(=O)(=O)N(CC(C)C)[C@H](CO)CCCCNC(=O)[C@H](Cc2c[nH]c3ccccc23)NC(=O)C(C)(C)C)cc1 [Example 148]"
class_name = "satisfied"

[[record]]
molecule = "Cc1ccc(S(=O)(=O)N[C@@H](Cc2ccccc2)C(=O)NCCCC[C@H](C(=O)O)N(CC(C)C)S(=O)(=O)c2ccc(C)cc2)cc1 [Example 67]"
class_name = "not satisfied"

[[record]]
molecule = "Cc1ccc(S(=O)(=O)N(CC(C)C)[C@@H](CCCCNC(=O)[C@H](CC(N)=O)NC(=O)c2ccccc2)C(=O)O)cc1 [Example 63]"
class_name = "not satisfied"

[[record]]
molecule = "CC(C)CN([C@H](CO)CCCCNC(=O)[C@H](Cc1c[nH]c2ccccc12)NC(=O)CC(C)(C)C)S(=O)(=O)c1ccc(N)cc1 [Example 185]"
class_name = "satisfied"


----------
- Assayed system: HIV protease (Human immunodeficiency virus type 1 group M subtype B)
- Construct: A third viral enzyme known as protease then cleaves the polyproteins
- Protocol details: Enzymatic Assay for Determining the Inhibition Constant (Ki) of Synthetic Compounds Targeting the HIV Protease (fluorometric FRET assay)
- Format: biochemical
Measured attribute: Ki

[[record]]
compound_structure_string = "Cc1ccc(S(=O)(=O)N(CC(C)C)[C@@H](CCCCNC(=O)[C@H](Cc2ccccc2)NS(=O)(=O)c2ccc(F)cc2)C(=O)O)cc1"
recorded_value = "8.3 nM"

[[record]]
compound_structure_string = "Cc1ccc(S(=O)(=O)N(CC(C)C)[C@@H](CCCCNC(=O)[C@H](CC(C)C)NS(=O)(=O)c2ccc([N+](=O)[O-])cc2)C(=O)O)cc1"
recorded_value = "34 nM"

[[record]]
compound_structure_string = "Cc1ccc(S(=O)(=O)N[C@@H](CC(N)=O)C(=O)NCCCC[C@@H](C(=O)O)N(CC(C)C)S(=O)(=O)c2ccc(N)cc2)cc1"
recorded_value = "54 nM"


----------
- Assayed system: HIV protease (Human immunodeficiency virus type 1 group M subtype B, UniProt P04585)
- Construct: A third viral enzyme known as protease then cleaves the polyproteins
- Protocol details: Enzymatic Assay for Determining the Inhibition Constant (Ki) of Synthetic Compounds Targeting the HIV Protease (fluorometric FRET assay)
- Assay type: biochemical
pKi: −log10 of the molar value.
Threshold check on pKi: at or above 9 gives 1, strictly below gives -1.

[[record]]
molecule = "Cc1ccc(S(=O)(=O)N(CC(C)C)[C@@H](CCCCNC(=O)[C@H](Cc2ccccc2)NS(=O)(=O)c2ccccc2)C(=O)O)cc1"
assayed_system = "HIV protease (Human immunodeficiency virus type 1 group M subtype B, UniProt P04585)"
class_name = -1

[[record]]
molecule = "Cc1ccc(S(=O)(=O)N[C@@H](Cc2c[nH]c3ccccc23)C(=O)NCCCC[C@@H](C(=O)O)N(CC(C)C)S(=O)(=O)c2ccc(C)cc2)cc1"
assayed_system = "HIV protease (Human immunodeficiency virus type 1 group M subtype B, UniProt P04585)"
class_name = 1

[[record]]
molecule = "Cc1ccc(S(=O)(=O)N[C@@H](Cc2c[nH]c3ccccc23)C(=O)NCCCC[C@@H](CO)N(CC(C)C)S(=O)(=O)c2ccc(N)cc2)cc1"
assayed_system = "HIV protease (Human immunodeficiency virus type 1 group M subtype B, UniProt P04585)"
class_name = -1

[[record]]
molecule = "COC(=O)[C@H](CCCCNC(=S)[C@H](Cc1ccccc1)NS(=O)(=O)c1ccc(C)cc1)N(CC(C)C)S(=O)(=O)c1ccc(C)cc1"
assayed_system = "HIV protease (Human immunodeficiency virus type 1 group M subtype B, UniProt P04585)"
class_name = -1

[[record]]
molecule = "Cc1ccc(S(=O)(=O)N[C@@H](CC(=O)O)C(=O)NCCCC[C@@H](C(=O)O)N(CC(C)C)S(=O)(=O)c2ccc(C)cc2)cc1"
assayed_system = "HIV protease (Human immunodeficiency virus type 1 group M subtype B, UniProt P04585)"
class_name = -1

[[record]]
molecule = "Cc1ccc(S(=O)(=O)N(CC(C)C)[C@H](CO)CCCCNC(=O)[C@H](Cc2ccc(C(C)(C)C)cc2)NC(=O)OC(C)(C)C)cc1"
assayed_system = "HIV protease (Human immunodeficiency virus type 1 group M subtype B, UniProt P04585)"
class_name = -1

[[record]]
molecule = "CCCC[C@H](NS(=O)(=O)c1ccccc1)C(=O)NCCCC[C@@H](C(=O)O)N(CC(C)C)S(=O)(=O)c1ccc(C)cc1"
assayed_system = "HIV protease (Human immunodeficiency virus type 1 group M subtype B, UniProt P04585)"
class_name = -1

[[record]]
molecule = "Cc1ccc(S(=O)(=O)N(CC(C)C)C(CCCCNC(=O)C(Cc2c[nH]c3ccccc23)NS(=O)(=O)c2ccccc2)C(=O)OCC(O)CO)cc1 (stereo not drawn)"
assayed_system = "HIV protease (Human immunodeficiency virus type 1 group M subtype B, UniProt P04585)"
class_name = -1

[[record]]
molecule = "Cc1ccc(S(=O)(=O)N[C@@H](Cc2cccs2)C(=O)NCCCC[C@@H](C(=O)O)N(CC(C)C)S(=O)(=O)c2ccc(C)cc2)cc1"
assayed_system = "HIV protease (Human immunodeficiency virus type 1 group M subtype B, UniProt P04585)"
class_name = -1

[[record]]
molecule = "Cc1ccc(S(=O)(=O)N[C@@H](CCCCN)C(=O)NCCCC[C@@H](C(=O)O)N(CC(C)C)S(=O)(=O)c2ccc(C)cc2)cc1"
assayed_system = "HIV protease (Human immunodeficiency virus type 1 group M subtype B, UniProt P04585)"
class_name = -1

[[record]]
molecule = "Cc1ccc(S(=O)(=O)N(CC(C)C)[C@@H](CCCCNC(=O)[C@H](Cc2ccccc2)NC(=O)NCCO)C(=O)O)cc1"
assayed_system = "HIV protease (Human immunodeficiency virus type 1 group M subtype B, UniProt P04585)"
class_name = -1

[[record]]
molecule = "Cc1ccc(S(=O)(=O)N(CC(C)C)[C@H](CO)CCCCNC(=O)[C@@H]2Cc3c([nH]c4ccccc34)CN2C(=O)OC(C)(C)C)cc1"
assayed_system = "HIV protease (Human immunodeficiency virus type 1 group M subtype B, UniProt P04585)"
class_name = -1

[[record]]
molecule = "Cc1ccc(S(=O)(=O)N(CC(C)C)[C@H](CO)CCCCNC(=O)[C@H](Cc2ccccc2)NC(=O)c2ccccc2)cc1"
assayed_system = "HIV protease (Human immunodeficiency virus type 1 group M subtype B, UniProt P04585)"
class_name = -1

[[record]]
molecule = "Cc1ccc(S(=O)(=O)N(CC(C)C)[C@H](CO)CCCCNC(=O)[C@H](Cc2c[nH]c3ccccc23)NC(=O)C(C)(C)C)cc1"
assayed_system = "HIV protease (Human immunodeficiency virus type 1 group M subtype B, UniProt P04585)"
class_name = 1

[[record]]
molecule = "COc1ccc(CN(CC(=O)NCCCC[C@@H](CO)N(CC(C)C)S(=O)(=O)c2ccc(N)cc2)c2ccccc2)cc1"
assayed_system = "HIV protease (Human immunodeficiency virus type 1 group M subtype B, UniProt P04585)"
class_name = -1

[[record]]
molecule = "COc1ccc(CC(=O)N[C@@H](Cc2c[nH]c3ccccc23)C(=O)NCCCC[C@@H](C(=O)O)N(CC(C)C)S(=O)(=O)c2ccc(C)cc2)cc1"
assayed_system = "HIV protease (Human immunodeficiency virus type 1 group M subtype B, UniProt P04585)"
class_name = 1

[[record]]
molecule = "CC(C)CN([C@@H](CCCCNC(=O)[C@H](Cc1ccccc1)NS(=O)(=O)c1cccs1)C(=O)O)S(=O)(=O)c1ccc([N+](=O)[O-])cc1"
assayed_system = "HIV protease (Human immunodeficiency virus type 1 group M subtype B, UniProt P04585)"
class_name = -1

[[record]]
molecule = "Cc1ccc(S(=O)(=O)N(CC(C)C)[C@@H](CCCCNC(=O)[C@H](Cc2c[nH]c3ccccc23)NS(=O)(=O)c2ccc([N+](=O)[O-])cc2)C(=O)O)cc1"
assayed_system = "HIV protease (Human immunodeficiency virus type 1 group M subtype B, UniProt P04585)"
class_name = -1

[[record]]
molecule = "Cc1ccc(S(=O)(=O)N(CC(C)C)[C@H](CO)CCCCNC(=O)CN(Cc2ccccc2)c2ccccc2)cc1"
assayed_system = "HIV protease (Human immunodeficiency virus type 1 group M subtype B, UniProt P04585)"
class_name = -1

[[record]]
molecule = "Cc1ccc(S(=O)(=O)N(CC(C)C)[C@@H](CCCCNC(=O)[C@H](Cc2c[nH]c3ccccc23)NC(=O)C(C)(C)C)C(=O)O)cc1"
assayed_system = "HIV protease (Human immunodeficiency virus type 1 group M subtype B, UniProt P04585)"
class_name = 1

